# Tested on: GP2D (KRAS G12D) cells
# Protocol: 2D cell viability assay (CellTiter-Glo)
# Format: cell-based
# Experimental parameters: GP2d, 96 h, 4 days
Measurement name: pEC50
// scale note: pEC50 = -log10(conc_M); give the bare number

Worked examples follow.
Oc1cc(-c2nc3c4c(nc(OC[C@@]56CCCN5C[C@H](F)C6)nc4c2F)N2C[C@H]4CC[C@H](N4)[C@H]2CO3)c2c(SC(F)(F)F)c(F)ccc2c1	7.38
Oc1cc(-c2nc3c4c(nc(OC[C@@]56CCCN5C[C@H](F)C6)nc4c2F)N2C[C@H]4CC[C@H](N4)[C@H]2CC3)c2c(OC(F)(F)F)c(F)ccc2c1	8.52
C#Cc1c(F)ccc2cc(O)cc(-c3nc4c5c(nc(OC[C@@]67CCCN6C[C@H](F)C7)nc5c3F)N3C[C@H]5CC[C@H](N5)[C@@H]3[C@@H](C)C4)c12	9.52
Oc1cc(-c2nc3c4c(nc(OC[C@@]56CCCN5C[C@H](F)C6)nc4c2F)N2C[C@H]4CC[C@H](N4)[C@H]2CO3)c2cc(F)ccc2c1	7.27

# ---- query molecule ----
Query: Requested read-out: pEC50. Entry: C#Cc1c(F)ccc2cccc(-c3nc4c5c(nc(OC[C@@]67CCCN6C[C@H](F)C7)nc5c3F)N3C[C@H]5CC[C@H](N5)[C@H]3C[C@H]4F)c12
Result: 8.38
